The reported numbers originate from ChEMBL document CHEMBL4330082.

Tested on: dsDNA
Experiment: Binding affinity to synthetic 27-mer duplex DNA assessed as residual binding at 60 uM after 4 mins by UV-Vis spectrophotometric analysis relative to control
Assay type: nucleic-acid assay
propertyLabel: Activity (%)

1 = CC(c1ccccc1)N1COc2ccc3c4c(oc3c2C1)C(=O)c1ccccc1C4=O (stereo not given)
2 = O=C1c2ccccc2C(=O)c2c1oc1c3c(ccc21)OCN(CCCn1ccnc1)C3
3 = O=C1c2ccccc2C(=O)c2c1oc1c3c(ccc21)OCN(CCC1=CCCCC1)C3
## Input List items by Activity in falling order. Please, when replying, give the labels in the order that was requested.
## Output 2, 3, 1

----------
System: Quadruplex DNA
Experiment: Binding affinity to synthetic c-Kit2 G-quadruplex DNA assessed as residual binding at 60 uM after 4 mins by UV-Vis spectrophotometric analysis relative to control
Format: nucleic-acid assay
propertyLabel: Activity (%)

compound | reported
O=C1c2ccccc2C(=O)c2c1oc1c3c(ccc21)OCN(CCC1=CCCCC1)C3 | 67
O=C1c2ccccc2C(=O)c2c1oc1c3c(ccc21)OCN(CCCn1ccnc1)C3 | 91
O=C1c2ccccc2C(=O)c2c1oc1c3c(ccc21)OCN(Cc1ccccc1)C3 | 83
O=C1c2ccccc2C(=O)c2c1oc1c3c(ccc21)OCN(CC1CCCO1)C3 (stereo unspecified) | 83
O=C1c2ccccc2C(=O)c2c1oc1c3c(ccc21)OCN(CC1CCS(=O)(=O)C1)C3 (stereo unspecified) | 68
O=C1c2ccccc2C(=O)c2c1oc1c3c(ccc21)OCN(Cc1ccco1)C3 | 92
CC(=O)c1c(C)oc2c1c1c(c3ccccc32)OCN(CCCN2CCOCC2)C1 | 70
O=C1c2ccccc2C(=O)c2c1oc1c3c(ccc21)OCN(Cc1cccnc1)C3 | 88
O=C1c2ccccc2C(=O)c2c1oc1c3c(ccc21)OCN(CCCN1CCOCC1)C3 | 84
CC(c1ccccc1)N1COc2ccc3c4c(oc3c2C1)C(=O)c1ccccc1C4=O (stereo unspecified) | 80
O=C1c2ccccc2C(=O)c2c1oc1c3c(ccc21)OCN(C1CCCCC1)C3 | 82

----------
Target: Quadruplex DNA
Test: Binding affinity to Cy5-fluorescently labeled synthetic MYC 22 G-quadruplex DNA by microscale thermophoresis assay
Assay type: nucleic-acid assay
propertyLabel: pKd
Reminder that pKd is minus the log10 of a molar concentration.

## Input Consider the compound CC(c1ccccc1)N1COc2ccc3c4c(oc3c2C1)C(=O)c1ccccc1C4=O (stereo unspecified) . State its measured pKd.
## Output 4.89

----------
Test system: Quadruplex DNA
Experiment: Binding affinity to synthetic c-Kit1 G-quadruplex DNA assessed as residual binding at 60 uM after 4 mins by UV-Vis spectrophotometric analysis relative to control
Format: nucleic-acid assay
propertyLabel: Activity (%)

molecule | Activity [%]
O=C1c2ccccc2C(=O)c2c1oc1c3c(ccc21)OCN(Cc1ccco1)C3 | 90

a = O=C1c2ccccc2C(=O)c2c1oc1c3c(ccc21)OCN(CCC1=CCCCC1)C3
b = O=C1c2ccccc2C(=O)c2c1oc1c3c(ccc21)OCN(Cc1cccnc1)C3
## Input Look at a and b . Which one has the lower recorded Activity number? Let me know the label of the one you choose.
## Output a

----------
System: Quadruplex DNA
Experiment: Binding affinity to human TERT1 G-quadruplex DNA assessed as residual binding at 60 uM after 4 mins by UV-Vis spectrophotometric analysis relative to control
Assay type: nucleic-acid assay
propertyLabel: Activity (%)

chemSmiles | studySystem | reported
O=C1c2ccccc2C(=O)c2c1oc1c3c(ccc21)OCN(CCCn1ccnc1)C3 | Quadruplex DNA | 82
O=C1c2ccccc2C(=O)c2c1oc1c3c(ccc21)OCN(CCC1=CCCCC1)C3 | Quadruplex DNA | 73
O=C1c2ccccc2C(=O)c2c1oc1c3c(ccc21)OCN(CCCN1CCOCC1)C3 | Quadruplex DNA | 92
O=C1c2ccccc2C(=O)c2c1oc1c3c(ccc21)OCN(Cc1cccnc1)C3 | Quadruplex DNA | 89
O=C1c2ccccc2C(=O)c2c1oc1c3c(ccc21)OCN(Cc1ccco1)C3 | Quadruplex DNA | 91
O=C1c2ccccc2C(=O)c2c1oc1c3c(ccc21)OCN(Cc1ccccc1)C3 | Quadruplex DNA | 78
